Tested on: HMPV clinical isolate TN/1501/A1
Assay: HMPV antiviral assay Method-B (clinical isolate TN/1501/A1 in LLC-MK2 cells, ATP-Lite readout)
Assay type: cell-based, Human metapneumovirus (HMPV)
Details: human metapneumovirus, LLC-MK2, 144 h, hMPV WT1501 (clinical isolate TN/1501/A1), 6 days
MEASUREMENT_TYPE: EC50

// below: answered molecules
| SMI | MEASUREMENT_TYPE | MEASURED_VALUE |
| --- | --- | --- |
| Cc1nc2c(Cl)cc(C(=O)NC[C@](O)(c3cc4c(c(-c5ccc(F)c(F)c5Cl)n3)OC[C@]4(C)C(N)=O)C3CC3)cc2cc1Cl | EC50 | < 500 nM |
| COc1cc(C(=O)NC[C@](O)(c2cc3c(c(-c4ccc(F)c(Cl)c4F)n2)OC[C@]3(C)C(N)=O)C(F)(F)F)cc2cn(C3(F)CC3)nc12 | EC50 | < 500 nM |
| C[C@]1(C(N)=O)COc2c1cc([C@@](O)(CNC(=O)c1cc(Cl)c3nn(C4CC4)cc3c1)C(F)(F)F)nc2-c1csc2c(F)cccc12 | EC50 | < 500 nM |
| Cc1cnc2c(OC(F)F)cc(C(=O)NC[C@](O)(c3cc4c(c(-c5ccc(F)c(F)c5Cl)n3)OC[C@]4(C)C(N)=O)C3CC3)cc2c1 | EC50 | < 500 nM |
| COc1cc(C(=O)NC[C@](O)(c2cc3c(c(-c4ccc(F)cc4)n2)OC[C@]3(C(N)=O)C2CC2)C(F)(F)F)cc2cc(C3CC3)nn12 | EC50 | > 500 nM |

In the following, a different molecule is considered.
[Q] Which EC50 value is on record for COc1cc(C(=O)NC[C@](O)(c2cc3c(c(-c4ccc(F)cc4)n2)OC[C@@]3(C(N)=O)C2CC2)C(F)(F)F)cc2cc(C3CC3)nn12 ?
[A] < 500 nM

====

# maps each entry to its EC50
System: HMPV clinical isolate TN/1501/A1
Test: HMPV antiviral assay Method-B (clinical isolate TN/1501/A1 in LLC-MK2 cells, ATP-Lite readout)
Format: cell-based, Human metapneumovirus (HMPV)
Details: human metapneumovirus, LLC-MK2, 144 h, hMPV WT1501 (clinical isolate TN/1501/A1), 6 days

| SMI | MEASUREMENT_TYPE | MEASURED_VALUE |
| --- | --- | --- |
| COc1ccc(C(=O)NC[C@](O)(c2cc3c(c(-c4ccc(F)cc4)n2)OC[C@]3(C)C(N)=O)C(F)(F)F)c2cc[nH]c12 | EC50 | > 500 nM |
| Cc1cnc2c(OC(F)F)cc(C(=O)NC[C@](O)(c3cc4c(c(-c5ccc(F)c(F)c5Cl)n3)OC[C@]4(C)C(N)=O)C3(F)CC3)cc2c1 | EC50 | < 500 nM |

[Q] Request - read-out EC50 | tested on HMPV clinical isolate TN/1501/A1 | molecule COc1cc(C(=O)NC[C@](O)(c2cc3c(c(-c4ccc(F)c(F)c4F)n2)OC[C@]3(C)C(N)=O)C2CC2)cc2cc(Br)cnc12
[A] < 500 nM

[Q] Could you share what EC50 was measured for COc1cc(C(=O)NC[C@](O)(c2cc3c(c(-c4cc(Cl)ccc4F)n2)OC[C@]3(C)C(N)=O)C2CC2)cc2cn(C3(F)CC3)nc12 , tested on HMPV clinical isolate TN/1501/A1?
[A] < 500 nM

[Q] Under HMPV clinical isolate TN/1501/A1: EC50 value of COc1cc(C(=O)NC[C@](O)(c2cc3c(c(-c4cc(F)c(F)c(Cl)c4)n2)OC[C@]3(C)C(N)=O)C2CC2)cc2cn(C3CC3)nc12 ?
[A] < 500 nM

[Q] EC50 of C[C@]1(C(N)=O)COc2c1cc([C@@](O)(CNC(=O)c1ccc3nn(C4CC4)cc3c1)C1CC1)nc2-c1cc(Cl)c(F)cc1F on HMPV clinical isolate TN/1501/A1?
[A] < 500 nM

[Q] Enter reported EC50 observed with HMPV clinical isolate TN/1501/A1 for COc1cc(C(=O)NC[C@](O)(c2cc3c(c(-c4ccc(F)c(F)c4F)n2)OC[C@]3(C)C(N)=O)C2(F)CC2)cc2cn(C3(F)CC3)nc12
[A] < 500 nM

[Q] Record lookup: for HMPV clinical isolate TN/1501/A1, what EC50 belongs to COc1cc(C(=O)NC[C@](O)(c2cc3c(c(-c4ccc(OC(F)(F)F)cc4)n2)OC[C@]3(C)C(N)=O)C(F)(F)F)cc2cn(C3CC3)nc12 ?
[A] > 500 nM

====

Each entry below lists one item and its recorded EC50 value.
Test system: HMPV clinical isolate TN/1501/A1
Experiment: HMPV antiviral assay Method-B (clinical isolate TN/1501/A1 in LLC-MK2 cells, ATP-Lite readout)
Assay type: cell-based, Human metapneumovirus (HMPV)
Settings: human metapneumovirus, LLC-MK2, 144 h, hMPV WT1501 (clinical isolate TN/1501/A1), 6 days
Experimental: In vitro HMPV antiviral activity was evaluated using the clinical isolate TN/1501/A1 and LLC-MK2 cells (ATCC #CCL-7), an immortalized kidney epithelial cell line from Macaca mulatta. […] The test compounds were assessed in duplicate at a top concentration of 10 μM followed by 3-fold serial dilutions to give a total of 10 concentration points. […] Cells were counted and seeded at a density of 5,000 cells/well, 12.5 μL/well. […]

| COMPOUND | SYSTEM_NAME | EC50 |
| --- | --- | --- |
| C[C@]1(C(N)=O)COc2c1cc([C@@](O)(CNC(=O)c1cc(Cl)c3nn(C4CC4)cc3c1)C(F)(F)F)nc2-c1cc(Cl)c(F)cc1F [Example 619] | HMPV clinical isolate TN/1501/A1 | < 500 nM |

We next turn to a different compound, shown below.
[Q] Using the record for COc1cc(C(=O)NC[C@](O)(c2cc3c(c(-c4ccc(F)cc4Cl)n2)OC[C@]3(C)C(N)=O)C(F)(F)F)cc2cn(C(F)F)nc12 [Example 529] , report its EC50.
[A] < 500 nM

====

Test system: HMPV clinical isolate TN/1501/A1
Assay: HMPV antiviral assay Method-B (clinical isolate TN/1501/A1 in LLC-MK2 cells, ATP-Lite readout)
Format: cell-based, Human metapneumovirus (HMPV)
Conditions: human metapneumovirus, LLC-MK2, 144 h, hMPV WT1501 (clinical isolate TN/1501/A1), 6 days
MEASUREMENT_TYPE: EC50

Consider the following illustrative entries.
| COMPOUND | SYSTEM_NAME | EC50 |
| --- | --- | --- |
| COc1cc(C(=O)NC[C@](O)(c2cc3c(c(-c4ccc(F)c(F)c4F)n2)OC[C@]3(C)C(N)=O)C2CC2)cc2cn(C3(F)CC3)nc12 | HMPV clinical isolate TN/1501/A1 | < 500 nM |
| COc1cc(C(=O)NCC(O)(c2cc3c(c(-c4ccc(F)c(OC(F)F)c4)n2)OC[C@]3(C)C(N)=O)C(F)(F)F)cc2cn(C3CC3)nc12 (stereo partly drawn) | HMPV clinical isolate TN/1501/A1 | > 500 nM |
| COc1cc(C(=O)NC[C@](O)(c2cc3c(c(-c4ccc(F)cc4)n2)OC[C@]3(C)C(N)=O)C2CCCC2)cc2cn(C3CC3)nc12 | HMPV clinical isolate TN/1501/A1 | > 500 nM |

[Q] # get_value(readout='EC50', item= C[C@]1(C(N)=O)COc2c1cc([C@@](O)(CNC(=O)c1cc(Cl)c3nn(C4CC4)cc3c1)C1CC1)nc2-c1ccc(F)c(Cl)c1F )
[A] < 500 nM

[Q] Consider the compound COc1cc(C(=O)NC[C@](O)(c2cc3c(c(-c4cc(F)c(F)cc4Cl)n2)OC[C@]3(C)C(N)=O)C2CC2)cc2cn(C3(F)CC3)nc12 and give its measured EC50.
[A] < 500 nM

[Q] Find the recorded EC50 belonging to COc1cc(C(=O)NC[C@](O)(c2cc3c(c(-c4csc5c(F)cccc45)n2)OC[C@]3(C)C(N)=O)C2(F)CC2)cc2cn(C3(F)CC3)nc12 and report it.
[A] < 500 nM

====

Test system: HMPV clinical isolate TN/1501/A1
Assay: HMPV antiviral assay Method-B (clinical isolate TN/1501/A1 in LLC-MK2 cells, ATP-Lite readout)
Type: cell-based, Human metapneumovirus (HMPV)
Conditions: human metapneumovirus, LLC-MK2, 144 h, hMPV WT1501 (clinical isolate TN/1501/A1), 6 days
MEASUREMENT_TYPE: EC50

See these solved cases before continuing.
| SMI | EC50 |
| --- | --- |
| C[C@]1(C(N)=O)COc2c1cc([C@@](O)(CNC(=O)c1ccc3nn(C4CC4)cc3c1)C1CC1)nc2-c1ccc(F)c(Cl)c1 | < 500 nM |
| COc1cc(C(=O)NC[C@](O)(c2cc3c(c(-c4ccc(F)c(C(F)(F)F)c4)n2)OC[C@]3(C)C(N)=O)C2(F)CC2)cc2cn(C3CC3)nc12 | < 500 nM |
| COc1cc(C(=O)NC[C@](O)(c2cc3c(c(-c4ccc5c(c4)OC(F)(F)O5)n2)OC[C@]3(C(N)=O)C(F)F)C2CC2)cc2cc(C3CC3)nn12 | > 500 nM |
| COc1cc(C(=O)NC[C@](O)(c2cc3c(c(-c4cc(Br)c(F)cc4F)n2)OC[C@]3(C)C(N)=O)C(F)(F)F)cc2cn(C3CC3)nc12 | < 500 nM |
| COc1cc(C(=O)NC[C@](O)(c2cc3c(c(-c4ccc(F)cc4)n2)OC[C@]3(C)C(N)=O)C2(F)CC2)cc2cc(Br)c(C)nc12 | < 500 nM |

Field: next compound
[Q] # get_value(readout='EC50', item= C[C@]1(C(N)=O)COc2c1cc([C@@](O)(CNC(=O)c1ccc(OC3CC3)c3nccn13)C(F)(F)F)nc2-c1ccc(F)cc1 )
[A] > 500 nM
